- Measured On: Endothelin receptor type B (Rattus norvegicus, UniProt P21451)
- Measurement Protocol: In vitro inhibition of [125-I] labelled ET-1 endothelin binding to Endothelin B receptor in rat cerebellum
- Assay type: tissue-based
pIC50: −log10 of the molar value.
Binary classification by pIC50, with 5 as an inclusive lower bound for 1 (yes); all other cases are 0 (no).

{"Structure Notation": "O=c1c(Cc2ccc3c(c2)OCO3)c(C(F)(F)F)[nH]n1Cc1cccc(Cl)c1", "Qualitative Label": "0 (no)"}
{"Structure Notation": "O=c1c(Cc2ccc3c(c2)OCO3)c(C(F)(F)F)[nH]n1Cc1cccc(O)c1", "Qualitative Label": "0 (no)"}
{"Structure Notation": "COc1cccc(Cn2[nH]c(C(F)(F)C(F)(F)C(F)(F)F)c(Cc3ccc4c(c3)OCO4)c2=O)c1", "Qualitative Label": "1 (yes)"}
{"Structure Notation": "O=c1c(Cc2ccc3c(c2)OCO3)c(C(F)(F)F)[nH]n1Cc1ccccc1", "Qualitative Label": "0 (no)"}
{"Structure Notation": "O=c1c(Cc2ccc3c(c2)OCO3)c(C(F)(F)F)[nH]n1Cc1ccc2c(c1)OCO2", "Qualitative Label": "0 (no)"}
{"Structure Notation": "COc1cccc(Cn2nc(-c3ccccc3)c(Cc3cc4c(cc3Cl)OCO4)c2C(=O)O)c1", "Qualitative Label": "1 (yes)"}
{"Structure Notation": "O=c1c(Cc2ccc3c(c2)OCO3)c(C(F)(F)F)[nH]n1Cc1ccccc1Cl", "Qualitative Label": "0 (no)"}
{"Structure Notation": "COc1ccc(Cc2c(C(F)(F)F)[nH]n(Cc3cccc(OC)c3)c2=O)cc1", "Qualitative Label": "0 (no)"}

---

- Measured On: Endothelin receptor type B (Rattus norvegicus)
- Sequence (P21451 whole entry): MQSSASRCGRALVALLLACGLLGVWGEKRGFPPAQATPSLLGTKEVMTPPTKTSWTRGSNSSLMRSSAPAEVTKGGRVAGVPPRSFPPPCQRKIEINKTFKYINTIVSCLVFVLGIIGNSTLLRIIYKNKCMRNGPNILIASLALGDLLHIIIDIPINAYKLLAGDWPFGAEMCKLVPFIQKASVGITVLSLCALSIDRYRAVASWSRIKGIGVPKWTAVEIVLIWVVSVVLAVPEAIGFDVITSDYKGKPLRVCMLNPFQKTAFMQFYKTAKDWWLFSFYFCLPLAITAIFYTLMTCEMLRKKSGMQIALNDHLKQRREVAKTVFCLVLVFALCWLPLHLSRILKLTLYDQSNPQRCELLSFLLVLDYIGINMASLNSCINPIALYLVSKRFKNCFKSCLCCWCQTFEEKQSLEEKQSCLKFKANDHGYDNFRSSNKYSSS
- Measurement Protocol: In vitro inhibition of [125-I] labelled ET-1 endothelin binding to Endothelin B receptor in rat cerebellum
- Format: tissue-based
pIC50: −log10 of the molar value.
Value Type: pIC50

{"Structure Notation": "COc1ccccc1Cn1[nH]c(C(F)(F)F)c(Cc2ccc3c(c2)OCO3)c1=O", "Value Type": "pIC50", "Result Operator": "=", "Observed Value": 4.48}
{"Structure Notation": "COc1ccc(Cn2[nH]c(C(F)(F)F)c(Cc3ccc4c(c3)OCO4)c2=O)c(OCC(=O)O)c1", "Value Type": "pIC50", "Result Operator": "=", "Observed Value": 4.92}
{"Structure Notation": "COc1cccc(Cn2[nH]c(-c3ccc([N+](=O)[O-])cc3)c(Cc3ccc4c(c3)OCO4)c2=O)c1", "Value Type": "pIC50", "Result Operator": "=", "Observed Value": 4.82}
{"Structure Notation": "COc1cccc(Cn2nc(C(F)(F)F)c(Cc3ccc4c(c3)OCO4)c2OCCO)c1", "Value Type": "pIC50", "Result Operator": "<", "Observed Value": 4.60}
{"Structure Notation": "COc1ccc(Cc2[nH]n(Cc3cccc(OC)c3)c(=O)c2Cc2ccc3c(c2)OCO3)cc1", "Value Type": "pIC50", "Result Operator": "=", "Observed Value": 4.62}
{"Structure Notation": "COc1cccc(Cn2[nH]c(C(F)(F)F)c(Cc3ccc(Cl)c(Cl)c3)c2=O)c1", "Value Type": "pIC50", "Result Operator": "=", "Observed Value": 5.08}
